test system: A549; assay: Antiproliferative activity against human A549 cells assessed as reduction in cell viability by MTT assay; format: functional, cell-based
quantity.measured: IC50 (µM)

smiles.repr: Cn1c(=O)c(=O)n(C2CCCC2)c2nc(N/N=C/c3cccc([N+](=O)[O-])c3)ncc21
tgt: A549
number: 12.3

smiles.repr: Cn1c(=O)c(=O)n(C2CCCC2)c2nc(N/N=C/c3ccc(S(C)(=O)=O)cc3)ncc21
tgt: A549
number: 84.5

smiles.repr: Cc1cc(C)c(/C=N/Nc2ncc3c(n2)n(C2CCCC2)c(=O)c(=O)n3C)c(C)c1
tgt: A549
number: 12

smiles.repr: Cn1c(=O)c(=O)n(C2CCCC2)c2nc(N/N=C/c3cc(C(F)(F)F)cc(C(F)(F)F)c3)ncc21
tgt: A549
number: 3.23

smiles.repr: COc1cc(/C=N/Nc2ncc3c(n2)n(C2CCCC2)c(=O)c(=O)n3C)cc(OC)c1OC
tgt: A549
number: 18.3

smiles.repr: Cn1c(=O)c(=O)n(C2CCCC2)c2nc(N/N=C/c3ccc(C(F)(F)F)cc3)ncc21
tgt: A549
number: 40.6

smiles.repr: Cn1c(=O)c(=O)n(C2CCCC2)c2nc(N/N=C/c3ccc(O)c(Br)c3)ncc21
tgt: A549
number: 12.8

smiles.repr: Cn1c(=O)c(=O)n(C2CCCC2)c2nc(N/N=C/c3ccc(F)c(Cl)c3)ncc21
tgt: A549
number: 9.41

A = Cn1c(=O)c(=O)n(C2CCCC2)c2nc(N/N=C/c3ccc(F)cc3Br)ncc21
B = CSc1ccc(/C=N/Nc2ncc3c(n2)n(C2CCCC2)c(=O)c(=O)n3C)cc1
C = Cn1c(=O)c(=O)n(C2CCCC2)c2nc(N/N=C/c3ccccc3F)ncc21
Arrange the 3 compounds by rising IC50, starting with the smallest. Use the labels to give the requested order. A, B, C
